Listed next: entries and their corresponding GI50.
# assayMethodText: Cytotoxicity against BALB mouse 3T3 cells
# Assay type: cell-based
# conditions: BALB 3T3 cells
property: GI50

recordsmiles=Fc1ccccc1/C=N/Nc1ncnc2sc3c(c12)CCCC3 property=GI50 endpointresult="> 250 µM"
recordsmiles=C/C(=N/Nc1ncnc2sc3c(c12)CCCC3)c1ccccc1 property=GI50 endpointresult="5.4 µM"
recordsmiles=Oc1ccc(/C=N/Nc2ncnc3sc4c(c23)CCCC4)cc1 property=GI50 endpointresult="6.6 µM"

====

# Tested on: M14
# assayMethodText: Cytotoxicity against human M14 cells
# Format: functional
property: log10(GI50) (log10 of the value in µM)

recordsmiles=COc1cccc(/C=N/Nc2ncnc3sc4c(c23)CCCC4)c1 property=log10(GI50) endpointresult=2.16
recordsmiles=FC(F)(F)c1ccc(/C=N/Nc2ncnc3sc4c(c23)CCCC4)cc1 property=log10(GI50) endpointresult=1.23
recordsmiles=C(=N\Nc1ncnc2sc3c(c12)CCCC3)/c1ccccn1 property=log10(GI50) endpointresult=-0.60
recordsmiles=NNc1ncnc2sc3c(c12)CCCC3 property=log10(GI50) endpointresult=1.39
recordsmiles=CC(C)(C)/C=N/Nc1ncnc2sc3c(c12)CCCC3 property=log10(GI50) endpointresult=1.51
recordsmiles=C(=N\Nc1ncnc2sc3c(c12)CCCC3)/c1ccco1 property=log10(GI50) endpointresult=1.05
recordsmiles=C/C(=N/Nc1ncnc2sc3c(c12)CCCC3)c1ccccc1 property=log10(GI50) endpointresult=1.30
recordsmiles=COc1ccc(/C=N/Nc2ncnc3sc4c(c23)CCCC4)cc1 property=log10(GI50) endpointresult=1.21
recordsmiles=C=CCOc1cc(/C=N/Nc2ncnc3sc4c(c23)CCCC4)cc(OCC=C)c1Br property=log10(GI50) endpointresult=1.11
recordsmiles=Brc1ccc(/C=N/Nc2ncnc3sc4c(c23)CCCC4)cc1 property=log10(GI50) endpointresult=1.53
recordsmiles=CC(C)(C)c1ccc(/C=N/Nc2ncnc3sc4c(c23)CCCC4)cc1 property=log10(GI50) endpointresult=1.48
recordsmiles=C(=N\Nc1ncnc2sc3c(c12)CCCC3)/c1ccc2ccccc2c1 property=log10(GI50) endpointresult=1.55
recordsmiles=CC(C)=NNc1ncnc2sc3c(c12)CCCC3 property=log10(GI50) endpointresult=1.37
recordsmiles=O=c1[nH]cc(F)c(=O)[nH]1 property=log10(GI50) endpointresult=1.51
recordsmiles=Fc1ccc(/C=N/Nc2ncnc3sc4c(c23)CCCC4)cc1 property=log10(GI50) endpointresult=1.25
recordsmiles=FC(F)(F)c1ccccc1/C=N/Nc1ncnc2sc3c(c12)CCCC3 property=log10(GI50) endpointresult=0.81
